target: UniProt:P35346
Sequence (P35346 whole entry): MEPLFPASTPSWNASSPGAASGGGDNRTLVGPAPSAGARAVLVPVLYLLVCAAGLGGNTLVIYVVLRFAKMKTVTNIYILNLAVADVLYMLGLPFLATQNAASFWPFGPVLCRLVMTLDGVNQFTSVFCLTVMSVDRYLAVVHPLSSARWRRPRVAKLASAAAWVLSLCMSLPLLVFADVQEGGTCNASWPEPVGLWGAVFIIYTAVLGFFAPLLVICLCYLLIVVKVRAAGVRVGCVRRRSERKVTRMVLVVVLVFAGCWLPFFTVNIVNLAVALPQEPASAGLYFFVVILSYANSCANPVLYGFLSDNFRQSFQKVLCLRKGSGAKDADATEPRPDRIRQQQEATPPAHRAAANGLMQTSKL
QUANTITY NAME: Ki (nM)
Write it as a number; the unit nM goes unstated.

Problem: Value wanted: Ki (UniProt:P35346) of entry "CCOc1cc(CN2CCC(Nc3nc(Cl)nc4cc(Cl)c(F)cc34)CC2)ccc1OC"
Solution: 383
